Subject Of Test: TRPML2 (Homo sapiens)
Construct: expressed in transfected cells
Sequence (Q8IZK6 whole entry): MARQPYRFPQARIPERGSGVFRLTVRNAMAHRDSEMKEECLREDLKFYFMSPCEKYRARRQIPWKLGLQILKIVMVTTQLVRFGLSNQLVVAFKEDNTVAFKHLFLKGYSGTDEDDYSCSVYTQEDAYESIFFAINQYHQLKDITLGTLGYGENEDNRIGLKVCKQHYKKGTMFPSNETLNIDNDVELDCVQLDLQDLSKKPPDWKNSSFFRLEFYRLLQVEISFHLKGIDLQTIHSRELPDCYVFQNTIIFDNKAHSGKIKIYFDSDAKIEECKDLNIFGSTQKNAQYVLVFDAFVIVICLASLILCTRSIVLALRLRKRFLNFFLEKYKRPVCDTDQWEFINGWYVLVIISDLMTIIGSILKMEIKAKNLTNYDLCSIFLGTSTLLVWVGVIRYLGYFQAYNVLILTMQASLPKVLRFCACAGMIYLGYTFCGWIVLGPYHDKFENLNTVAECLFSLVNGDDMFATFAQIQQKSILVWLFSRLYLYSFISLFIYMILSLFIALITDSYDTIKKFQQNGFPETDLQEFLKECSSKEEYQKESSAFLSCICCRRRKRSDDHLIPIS
Assay Method Text: Fluorescent TRPML2 assay (as for TRPML1)
Assay type: cell-based
Assay Conditions: Table 3, compounds 201-283
Reported EC50 values for the following compounds.

Example cases with answers are listed next.
{"columns": ["Compound", "EC50"],
 "data": [
  ["C[C@H]1CN(C(=O)[C@H](F)C(C)(C)C)CCN1c1ncnc2c1c(C1CC1)cn2-c1cc(C#N)ccn1 (single isomer, unassigned) [Compound 202]", "< 0.1 µM"],
  ["[2H]C([2H])([2H])C(C(=O)N1C[C@H](C)N(c2ncnc3c2c(-c2ccccc2F)cn3-c2cc(C#N)ccn2)C[C@H]1C)(C([2H])([2H])[2H])C([2H])([2H])[2H] [Compound 231]", "< 0.1 µM"],
  ["COC(C)(C)C(=O)N1C[C@H](C)N(c2ncnc3c2c(C2CC2)cn3-c2cc(C#N)ccn2)C[C@H]1C [Compound 264]", "0.5 to 2 µM"]
]}

Ask | Give its EC50 value. Item: C[C@@H]1CN(c2ncnc3c2c(N2CCCC2)cn3-c2cccc(Cl)c2)CCN1C(=O)C1(F)CC1 [Compound 279]
Reply | 0.5 to 2 µM

Ask | Give its EC50 value. Item: COC(C)(C)C(=O)N1C[C@H](C)N(c2ncnc3c2c(-c2ccccc2F)cn3-c2cc(C#N)ccn2)C[C@H]1C [Compound 232]
Reply | < 0.1 µM

Ask | Give its EC50 value. Item: C[C@H]1CN(C(=O)C2(F)CC2)CCN1c1ncnc2c1c(N1CCCC1)cn2-c1cccc(Cl)c1 [Compound 278]
Reply | 0.1 to 0.5 µM

Ask | Give its EC50 value. Item: C[C@@H]1CN(c2ncnc3c2c(C2CCC2)cn3-c2cc(F)cc(F)c2)[C@@H](C)CN1C(=O)C(C)(C)C(F)(F)F [Compound 259]
Reply | 0.5 to 2 µM

Ask | Give its EC50 value. Item: C[C@@H]1CN(c2ncnc3c2c(N2CCC2)cn3-c2cc(C#N)ccn2)CCN1C(=O)C1(F)CC1 [Compound 270]
Reply | 0.1 to 0.5 µM

Ask | Give its EC50 value. Item: COC(C)(C)C(=O)N1C[C@H](C)N(c2ncnc3c2c(C(F)(F)F)cn3-c2cc(C#N)ccn2)C[C@H]1C [Compound 208]
Reply | 0.5 to 2 µM

Ask | Give its EC50 value. Item: C[C@@H]1CN(c2ncnc3c2c(N2CCC2)cn3-c2cccc(Cl)c2)[C@@H](C)CN1C(=O)C(C)(C)C [Compound 220]
Reply | 0.1 to 0.5 µM
